Catalogue of AC50 values
target: D(1A) dopamine receptor (Homo sapiens); type: functional, cell-based; also: assay procedure not described here
Sequence (P21728 whole entry): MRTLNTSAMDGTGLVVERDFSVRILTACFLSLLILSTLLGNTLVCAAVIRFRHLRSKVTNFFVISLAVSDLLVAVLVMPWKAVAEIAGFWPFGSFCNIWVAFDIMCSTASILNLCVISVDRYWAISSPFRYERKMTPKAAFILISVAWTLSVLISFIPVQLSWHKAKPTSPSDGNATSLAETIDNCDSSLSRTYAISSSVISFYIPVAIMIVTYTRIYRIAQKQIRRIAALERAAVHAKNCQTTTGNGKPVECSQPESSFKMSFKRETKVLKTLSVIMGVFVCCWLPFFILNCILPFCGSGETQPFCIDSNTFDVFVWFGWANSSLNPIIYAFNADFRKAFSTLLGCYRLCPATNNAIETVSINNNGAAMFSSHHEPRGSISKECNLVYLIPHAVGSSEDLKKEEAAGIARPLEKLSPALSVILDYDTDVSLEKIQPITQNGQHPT
outcome-measure: AC50

>  <molecule>
Cc1nc(Nc2ncc(C(=O)Nc3c(C)cccc3Cl)s2)cc(N2CCN(CCO)CC2)n1

>  <measured-on>
D(1A) dopamine receptor (Homo sapiens); also: assay procedure not described here

>  <result>
> 30 µM

$$$$
>  <molecule>
Cc1cc(C)nc(NS(=O)(=O)c2ccc(N)cc2)n1

>  <measured-on>
D(1A) dopamine receptor (Homo sapiens); also: assay procedure not described here

>  <result>
> 30 µM

$$$$
>  <molecule>
CCC1(CCC(C)C)C(=O)NC(=O)NC1=O

>  <measured-on>
D(1A) dopamine receptor (Homo sapiens); also: assay procedure not described here

>  <result>
> 10 µM

$$$$
>  <molecule>
COc1cc(C)c(/C=C/C(C)=C/C=C/C(C)=C/C(=O)O)c(C)c1C

>  <measured-on>
D(1A) dopamine receptor (Homo sapiens); also: assay procedure not described here

>  <result>
> 10 µM

$$$$
>  <molecule>
CN(CCOc1ccc(CC2SC(=O)NC2=O)cc1)c1ccccn1 (stereo not given)

>  <measured-on>
D(1A) dopamine receptor (Homo sapiens); also: assay procedure not described here

>  <result>
> 30 µM

$$$$

====

biological target: Beta-2 adrenergic receptor (Homo sapiens, UniProt P07550); also: assay procedure not described here
Sequence (P07550 whole entry): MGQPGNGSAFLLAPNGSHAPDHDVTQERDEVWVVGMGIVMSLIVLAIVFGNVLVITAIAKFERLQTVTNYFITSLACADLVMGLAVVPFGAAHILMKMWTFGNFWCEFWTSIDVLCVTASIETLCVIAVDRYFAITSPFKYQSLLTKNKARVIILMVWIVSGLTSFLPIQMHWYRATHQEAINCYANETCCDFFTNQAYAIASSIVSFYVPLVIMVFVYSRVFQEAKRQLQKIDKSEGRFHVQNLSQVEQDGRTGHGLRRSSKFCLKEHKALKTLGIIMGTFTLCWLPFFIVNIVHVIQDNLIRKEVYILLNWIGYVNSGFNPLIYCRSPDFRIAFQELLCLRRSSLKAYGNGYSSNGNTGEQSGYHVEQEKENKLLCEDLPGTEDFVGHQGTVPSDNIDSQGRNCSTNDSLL
Where a SMILES comes first, the peptide text is derived from it. [ ]: non-standard residue; d: D form. pGlu = O=C1CC[C@@H](C(=O)O)N1; Thz = O=C(O)[C@@H]1CSCN1
outcome-measure: AC50

>  <molecule>
O=C1c2cccc3c2[C@H](CCC3)CN1[C@@H]1CN2CCC1CC2

>  <outcome-measure>
AC50

>  <result>
> 30 µM

$$$$
>  <molecule>
CCC1(CCC(C)C)C(=O)NC(=O)NC1=O

>  <outcome-measure>
AC50

>  <result>
> 10 µM

$$$$
>  <molecule>
CCOC(=O)c1c(CSc2ccccc2)n(C)c2cc(Br)c(O)c(CN(C)C)c12

>  <outcome-measure>
AC50

>  <result>
> 30 µM

$$$$
>  <molecule>
CCCCOc1ccc(C(=O)CCN2CCCCC2)cc1

>  <outcome-measure>
AC50

>  <result>
> 10 µM

$$$$
>  <molecule>
CC(c1cc2ccccc2s1)N(O)C(N)=O (stereo not given)

>  <outcome-measure>
AC50

>  <result>
> 10 µM

$$$$
>  <molecule>
CCCNC(=O)NS(=O)(=O)c1ccc(Cl)cc1 [CHLORPROPAMIDE]

>  <outcome-measure>
AC50

>  <result>
> 10 µM

$$$$
>  <molecule>
Cc1ccnc2c1NC(=O)c1cccnc1N2C1CC1

>  <outcome-measure>
AC50

>  <result>
> 10 µM

$$$$
>  <molecule>
O=C1CC[C@@H](C(=O)N2CSC[C@H]2C(=O)O)N1 [PIDOTIMOD] ([pGlu]-[Thz]-OH)

>  <outcome-measure>
AC50

>  <result>
> 30 µM

$$$$
>  <molecule>
COc1cc(C(=O)NC2CCCNC2)cc(OC)c1OC (stereo not given) [TROXIPIDE]

>  <outcome-measure>
AC50

>  <result>
> 30 µM

$$$$
>  <molecule>
COC(=O)[C@H]1[C@H]2C[C@@H]3c4[nH]c5cc(OC)ccc5c4CCN3C[C@H]2C[C@@H](OC(=O)c2cc(OC)c(OC)c(OC)c2)[C@@H]1OC

>  <outcome-measure>
AC50

>  <result>
> 10 µM

$$$$
>  <molecule>
CCCc1nc2c(C)cc(-c3nc4ccccc4n3C)cc2n1Cc1ccc(-c2ccccc2C(=O)O)cc1

>  <outcome-measure>
AC50

>  <result>
> 30 µM

$$$$
>  <molecule>
Cc1cccc(C)c1NC(=O)CC12CCCN1CCC2 [PILSICAINIDE]

>  <outcome-measure>
AC50

>  <result>
> 30 µM

$$$$
>  <molecule>
C[N+]12CCC(CC1)C(OC(=O)C(O)(c1ccccc1)c1ccccc1)C2 (stereo not given)

>  <outcome-measure>
AC50

>  <result>
> 30 µM

$$$$
>  <molecule>
COc1ccc([C@@H]2CC(=O)c3c(O)cc(O)cc3O2)cc1O

>  <outcome-measure>
AC50

>  <result>
> 10 µM

$$$$
>  <molecule>
O=C(/C=C/c1cccc(S(=O)(=O)Nc2ccccc2)c1)NO

>  <outcome-measure>
AC50

>  <result>
> 10 µM

$$$$
>  <molecule>
CCOC(=O)c1ccc(N)cc1

>  <outcome-measure>
AC50

>  <result>
> 10 µM

$$$$
>  <molecule>
Cc1cc(=O)n(-c2ccccc2)n1C [ANTIPYRINE]

>  <outcome-measure>
AC50

>  <result>
> 10 µM

$$$$
>  <molecule>
C/C=C(/C(=C/C)c1ccc(O)cc1)c1ccc(O)cc1

>  <outcome-measure>
AC50

>  <result>
> 10 µM

$$$$
>  <molecule>
Clc1ccc(CCC(Cn2ccnc2)Sc2c(Cl)cccc2Cl)cc1 (stereo not given)

>  <outcome-measure>
AC50

>  <result>
> 30 µM

$$$$
>  <molecule>
COc1cc(C(=O)NS(=O)(=O)c2ccccc2C)ccc1Cc1cn(C)c2ccc(NC(=O)OC3CCCC3)cc12

>  <outcome-measure>
AC50

>  <result>
> 10 µM

$$$$
